src = BindingDB's records for doi:10.1021/jm500588w

assay: Antagonist activity at P2Y12 receptor in human platelet rich plasma assessed as inhibition of ADP-induced aggregation
Quick reference for IC50 among some molecules
Result Type: IC50

CCCC(=O)c1cnn(-c2ccc(NC(=O)c3cn(CC(=O)O)c4ccc(C)c(C)c34)cc2)c1C; > 30 µM
CCCC(=O)c1cnn(-c2ccc(NC(=O)n3cc(CCCC(=O)O)c4ccc(C)cc43)cc2)c1C; > 30 µM
CCCC(=O)c1cnn(-c2ccc(N(C)C(=O)c3cn(CC(=O)O)c4ccc(C)cc34)cc2)c1C; > 30 µM
